Could you please report measured DTDP Interchange for the items listed next?
Tested on: dNOX (ABP-20)
experimental.protocol: DTDP (protein disulfide-thiol) interchange of dNOX (ABP-20) site-directed mutants
Type: biochemical
One number for each entry, in μmoles/min/mg protein.

[[record]]
molecule = "C44A: ABP-20 with C44 replaced by alanine (CKK motif) (protein, UniProt O04011 24-214, looked up, variant C44A) Auxin-binding protein ABP20: AVQDFCVADLAAPEGPAGFSAKKPASVKVNDFVFSGLGIAGNTSNIIKAAVTPAFVAQFPGVNGLGISIARLDLAVGGVVPFHTHPGASEVLIVAQGTICAGFVASDNTPYLQTLEKGDIMVFPQGLLHFQVNGGEAPALAFASFGSASPGLQILDFALFKNDLPTEVIAQTTFLDAAQIKKLKGVLGGTN"
units_of_measure = "μmoles/min/mg protein"
reading = 0.02

[[record]]
molecule = "H152A: ABP-20 putative copper site replacement (protein, UniProt O04011 24-214, looked up, variant H152A) Auxin-binding protein ABP20: AVQDFCVADLAAPEGPAGFSCKKPASVKVNDFVFSGLGIAGNTSNIIKAAVTPAFVAQFPGVNGLGISIARLDLAVGGVVPFHTHPGASEVLIVAQGTICAGFVASDNTPYLQTLEKGDIMVFPQGLLAFQVNGGEAPALAFASFGSASPGLQILDFALFKNDLPTEVIAQTTFLDAAQIKKLKGVLGGTN"
units_of_measure = "μmoles/min/mg protein"
reading = 0.02


Please look at the items below and tell me DTDP Interchange for each one, in order.
1. H106A: ABP-20 putative copper site replacement (protein, UniProt O04011 24-214, looked up, variant H106A) Auxin-binding protein ABP20: AVQDFCVADLAAPEGPAGFSCKKPASVKVNDFVFSGLGIAGNTSNIIKAAVTPAFVAQFPGVNGLGISIARLDLAVGGVVPFATHPGASEVLIVAQGTICAGFVASDNTPYLQTLEKGDIMVFPQGLLHFQVNGGEAPALAFASFGSASPGLQILDFALFKNDLPTEVIAQTTFLDAAQIKKLKGVLGGTN
2. G59A: ABP-20 with G59 replaced by alanine (adenine nucleotide binding motif) (protein, UniProt O04011 24-214, looked up, variant G59A) Auxin-binding protein ABP20: AVQDFCVADLAAPEGPAGFSCKKPASVKVNDFVFSALGIAGNTSNIIKAAVTPAFVAQFPGVNGLGISIARLDLAVGGVVPFHTHPGASEVLIVAQGTICAGFVASDNTPYLQTLEKGDIMVFPQGLLHFQVNGGEAPALAFASFGSASPGLQILDFALFKNDLPTEVIAQTTFLDAAQIKKLKGVLGGTN

[0.02, 0.07]
